experiment: PSAC antagonists in infected red cells, primary screen, cell-based, P. falciparum Indochina, OD700, 18 h (AID 1157); details: P. falciparum Indochina infected erythrocytes, osmotic lysis OD700, 18 h; higher = more signal, called active from +8 up or from −8 down
Respond with 1 (yes) for z-score values of 0.2 and above, 0 (no) for values below.

{"COMPOUND": "C#CCCCON=C1C[C@@H](O)[C@@H](O)[C@@H]2[C@@H]3C(=O)N(c4ccc(F)cc4F)C(=O)[C@@H]3CC[C@@H]12", "CAT": "0 (no)"}
{"COMPOUND": "COc1ccc(COC(=O)NN=C2C[C@@H](O)[C@@H](O)[C@@H]3[C@@H]4C(=O)N(c5ccc(F)cc5F)C(=O)[C@@H]4CC[C@H]23)cc1", "CAT": "1 (yes)"}
{"COMPOUND": "C[C@H](ON=C1[C@H]2CCn3c(=O)n(-c4ccccc4)c(=O)n3[C@H]2[C@H](O)[C@@H]2O[C@H]12)c1cn([C@H](CO)Cc2ccccc2)nn1", "CAT": "0 (no)"}
{"COMPOUND": "O=C1C[C@@H](O)[C@@H](O)[C@@H]2[C@@H]3C(=O)N(C[C@@H]4CCCO4)C(=O)[C@@H]3CC[C@H]12", "CAT": "1 (yes)"}
{"COMPOUND": "CCOC(=O)[C@H](CC(C)C)NC(=O)CCC1CC(OC(=O)NCCc2ccc(F)cc2)CC2(CCCC(COC(=O)NCCOc3ccccc3)O2)O1 (some centres not stated)", "CAT": "1 (yes)"}
{"COMPOUND": "O=C1C2=CC[C@H]3C(=O)N(c4cccc(Oc5ccccc5)c4)C(=O)[C@H]3[C@H]2[C@H](O)[C@@H]2O[C@H]12", "CAT": "0 (no)"}

Now for another entry.
Q) Check if z-score >= 0.2 (inclusive). Item: CC(C)=CCCC(C)=CCON=C1C[C@@H](O)[C@@H](O)[C@@H]2[C@@H]3C(=O)N(c4cccc(Oc5ccccc5)c4)C(=O)[C@@H]3CC[C@@H]12
A) 0 (no)

* * *

Provide the recorded composite z-score for the entries that follow.
biological target: Torsin-1A (Homo sapiens); assay: small-molecule binders of mutant TOR1A in lysate, primary screen, cell lysate, small-molecule microarray, COS7 lysate, 635/667 nm fluorescence (AID 1150); conditions: COS7 hTOR1A mutant lysate, 635 nm fluorescence, higher = more signal;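 also: score pools 667 nm emission and signal to noise measuring lysate protein binding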

Example cases with answers are listed next.
{"MOLECULE": "O=C1[C@H]2[C@H]3[C@H](O)[C@H](O)CC(=NOCc4ccccc4)[C@@H]3CC[C@H]2C(=O)N1c1ccc(F)cc1F", "composite z-score": -0.153}
{"MOLECULE": "COC(=O)C=CCCc1coc(C=CCNC(=O)OC)n1", "composite z-score": 0.205}
{"MOLECULE": "COC(=O)CC=C[C@@H](C)[C@@H]1C=C[C@H](O)[C@@H](CO)O1", "composite z-score": 0.448}
{"MOLECULE": "O=c1n(Cc2cc3c(cc2Cl)OCO3)c(=O)n2n1CC[C@@H]1C(=NOCc3ccccc3)[C@H]3O[C@H]3[C@@H](O)[C@@H]12", "composite z-score": 0.223}
{"MOLECULE": "O=C(NN=C1C[C@@H](O)[C@@H](O)[C@@H]2[C@@H]3C(=O)N(C[C@@H]4CCCO4)C(=O)[C@@H]3CC[C@@H]12)OCc1ccccc1", "composite z-score": 2.72}
{"MOLECULE": "COc1cccc([C@H]2Oc3ccc(OC)cc3C(=NO[C@H](C)c3cn([C@H](CO)Cc4ccccc4)nn3)[C@@H]2O)c1", "composite z-score": 1.44}
{"MOLECULE": "COC(=O)[C@@H]1CC[C@H](C)[C@@H](c2ccc(C)cc2)N1C(=O)c1ccc(C=NO[C@H](C)c2cn([C@@H]3COC[C@H]3O)nn2)cc1", "composite z-score": 0.603}
{"MOLECULE": "C[n+]1ccc(-c2ccc(CO)cc2)cc1", "composite z-score": 1.67}

Would you mind giving composite z-score for every molecule in the list below?
1. CCOC(=O)[C@H](Cc1ccccc1)NC(=O)CCC1CC(OC(=O)NCc2cccc3ccccc23)CC2(CCCC(COC(=O)NCCC(C)C)O2)O1 (stereo not given in full)
2. CCOC(=O)NN=C1C[C@@H](O)[C@@H](O)[C@@H]2[C@@H]3C(=O)N(Cc4ccccc4)C(=O)[C@@H]3CC[C@H]12
3. C[C@@H](ON=C1[C@H]2CCn3c(=O)n(-c4ccccc4)c(=O)n3[C@H]2[C@H](O)[C@@H]2O[C@H]12)c1cn([C@@H]2COC[C@H]2O)nn1
4. COC(=O)[C@H]1O[C@@H](c2c(OC)c(OC)c(C)c(OC)c2OC)[C@H](C)[C@@H](O)[C@H]1C
5. CCc1cc2c(nc1CC)CCN(CCC(C)=NO[C@@H](C)c1cn([C@H](CO)Cc3ccccc3)nn1)C2
6. CCOC(=O)NN=C1C[C@@H](O)[C@@H](O)[C@@H]2[C@@H]3C(=O)N(c4cccc(Oc5ccccc5)c4)C(=O)[C@@H]3CC[C@@H]12
7. CCN1C(=O)[C@H]2[C@H]3[C@H](O)[C@H](O)CC(=NNC(=O)OCc4ccc(OC)cc4)[C@@H]3CC[C@H]2C1=O

A)
1. -0.359
2. 1.36
3. 0.63
4. 0.295
5. 0.216
6. 0.139
7. -0.703

Would you mind giving composite z-score for every molecule in the list below?
1. CC(=O)O[C@H]1C2=CO[C@H](C)[C@H]3[C@H]4C5=C([C@H](O)[C@H]6O[C@H]6C5=O)[C@H](OC4C)[C@@]23C(=O)[C@@H]2O[C@@H]21 (stereo not given in full)
2. C#CCCCON=C1C[C@@H](O)[C@@H](O)[C@@H]2[C@@H]3C(=O)N(CC)C(=O)[C@@H]3CC[C@@H]12
3. CO[C@H]1COC(=O)CC=C[C@@H](C)[C@H](OC)COC(=O)CCC[C@@H]1C
4. CCOC(=O)[C@H](CC(C)C)NC(=O)CCC1CC(OC(=O)NCCc2ccc(F)cc2)CC2(CCCC(COC(=O)NCC3CCCCC3)O2)O1 (stereo not given in full)
5. COc1ccc(O[C@H]2C=C[C@@H](c3ccccc3)O[C@@H]2CON=C(C)CCC(=O)OC[C@H]2O[C@H](c3ccccc3)C=C[C@@H]2Oc2ccc(OC)cc2)cc1
6. O=C1OCCC=C1C(O)CCc1ccccc1 (stereo not given)
7. COC(=O)CC=C[C@@H](C)[C@@H](C=NO[C@@H]1O[C@H](COC(C)=O)[C@@H](OC(C)=O)[C@H](OC(C)=O)[C@H]1OC(C)=O)OC

A)
-0.279
0.555
0.33
0.915
-1.43
0.0478
0.32

Would you mind giving composite z-score for every molecule in the list below?
1. CCN1C(=O)[C@@H]2[C@H]3C(=CC[C@@H]2C1=O)C1(OCCCO1)[C@H]1O[C@H]1[C@H]3O
2. CC(C)CON=C1C[C@@H](O)[C@@H](O)[C@@H]2[C@@H]3C(=O)N(c4cccc(Oc5ccccc5)c4)C(=O)[C@@H]3CC[C@@H]12
3. O=C(C=Cc1ccc2c(c1)OCO2)c1ccc(F)cc1
4. CC(C)(C)N1C(=O)[C@H]2[C@H]3[C@H](O)C=CC(=O)[C@@H]3CC[C@H]2C1=O
5. CCOC(=O)NN=C1C[C@@H](O)[C@@H](O)[C@@H]2[C@@H]3C(=O)N(C(C)(C)C)C(=O)[C@@H]3CC[C@H]12
6. CC(C)CON=C1C[C@@H](O)[C@@H](O)[C@@H]2[C@@H]3C(=O)N(C(C)(C)C)C(=O)[C@@H]3CC[C@H]12
7. CCOC(=O)[C@H](CC(C)C)NC(=O)CCC1CC(OC(=O)NCc2cccc3ccccc23)CC2(CCCC(COC(=O)NCCC(C)C)O2)O1 (stereo not given in full)

A)
1.09
0.181
-0.397
0.252
0.307
0.329
0.185

Q) Would you mind telling me what composite z-score value was observed for CCOC(=O)[C@H](Cc1ccccc1)NC(=O)CCC1CC(OC(=O)NCc2ccc3c(c2)OCO3)CC2(CCCC(COC(=O)NCCc3ccccc3OC)O2)O1 (stereo not given in full) ?
A) 0.252
